- Tested on: Mycobacterium tuberculosis Erdman (autoluminescent)
- Assay name: total FIC50 (Loewe) at 50% inhibition, three-drug combination (log2); higher = more antagonistic
- Condition notes: in vitro model: butyrate; time point: terminal (~4-5 doublings, model-specific)

Compound	total FIC50
CC(C)/N=c1\cc2n(-c3ccc(Cl)cc3)c3ccccc3nc-2cc1Nc1ccc(Cl)cc1 [clofazimine] + NC(=O)c1cnccn1 [pyrazinamide] + CO[C@H]1/C=C/O[C@@]2(C)Oc3c(C)c(O)c4c(O)c(c(/C=N/N5CCN(C)CC5)c(O)c4c3C2=O)NC(=O)/C(C)=C\C=C\[C@H](C)[C@H](O)[C@@H](C)[C@@H](O)[C@@H](C)[C@H](OC(C)=O)[C@@H]1C [rifampicin]	0.0552
CC[C@@H](CO)NCCN[C@@H](CC)CO [ethambutol] + CC(=O)NC[C@H]1CN(c2ccc(N3CCOCC3)c(F)c2)C(=O)O1 [linezolid] + CO[C@H]1/C=C/O[C@@]2(C)Oc3c(C)c(O)c4c(O)c(c(/C=N/N5CCN(C6CCCC6)CC5)c(O)c4c3C2=O)NC(=O)/C(C)=C\C=C\[C@H](C)[C@H](O)[C@@H](C)[C@@H](O)[C@@H](C)[C@H](OC(C)=O)[C@@H]1C [rifapentine]	0.251
COc1nc2ccc(Br)cc2cc1[C@@H](c1ccccc1)[C@@](O)(CCN(C)C)c1cccc2ccccc12 [bedaquiline] + CC(=O)NC[C@H]1CN(c2ccc(N3CCOCC3)c(F)c2)C(=O)O1 [linezolid] + O=[N+]([O-])c1cn2c(n1)OC[C@@H](OCc1ccc(OC(F)(F)F)cc1)C2 [pretomanid]	0.645
COc1nc2ccc(Br)cc2cc1[C@@H](c1ccccc1)[C@@](O)(CCN(C)C)c1cccc2ccccc12 [bedaquiline] + O=[N+]([O-])c1cn2c(n1)OC[C@@H](OCc1ccc(OC(F)(F)F)cc1)C2 [pretomanid] + CO[C@H]1/C=C/O[C@@]2(C)Oc3c(C)c(O)c4c(O)c(c(/C=N/N5CCN(C6CCCC6)CC5)c(O)c4c3C2=O)NC(=O)/C(C)=C\C=C\[C@H](C)[C@H](O)[C@@H](C)[C@@H](O)[C@@H](C)[C@H](OC(C)=O)[C@@H]1C [rifapentine]	0.541
CC[C@@H](CO)NCCN[C@@H](CC)CO [ethambutol] + NNC(=O)c1ccncc1 [isoniazid] + O=[N+]([O-])c1cn2c(n1)OC[C@@H](OCc1ccc(OC(F)(F)F)cc1)C2 [pretomanid]	0.439
CC(C)/N=c1\cc2n(-c3ccc(Cl)cc3)c3ccccc3nc-2cc1Nc1ccc(Cl)cc1 [clofazimine] + CC[C@@H](CO)NCCN[C@@H](CC)CO [ethambutol] + NC(=O)c1cnccn1 [pyrazinamide]	0.0941
COc1nc2ccc(Br)cc2cc1[C@@H](c1ccccc1)[C@@](O)(CCN(C)C)c1cccc2ccccc12 [bedaquiline] + CC[C@@H](CO)NCCN[C@@H](CC)CO [ethambutol] + CO[C@H]1/C=C/O[C@@]2(C)Oc3c(C)c(O)c4c(O)c(c(/C=N/N5CCN(C)CC5)c(O)c4c3C2=O)NC(=O)/C(C)=C\C=C\[C@H](C)[C@H](O)[C@@H](C)[C@@H](O)[C@@H](C)[C@H](OC(C)=O)[C@@H]1C [rifampicin]	0.293
COc1nc2ccc(Br)cc2cc1[C@@H](c1ccccc1)[C@@](O)(CCN(C)C)c1cccc2ccccc12 [bedaquiline] + NNC(=O)c1ccncc1 [isoniazid] + NC(=O)c1cnccn1 [pyrazinamide]	0.373

---

In this section, each of the compounds is paired with its reported Einf.
- Test system: Mycobacterium tuberculosis Erdman (autoluminescent)
- Assay name: Einf, fitted maximum growth inhibition of combination (fraction); higher = stronger maximal inhibition
- Condition notes: in vitro model: cholesterol 0.05 mM; time point: constant (~7 days, model-specific)

Compound	Einf
COc1c(N2C[C@@H]3CCCN[C@@H]3C2)c(F)cc2c(=O)c(C(=O)O)cn(C3CC3)c12 [moxifloxacin] + O=[N+]([O-])c1cn2c(n1)OC[C@@H](OCc1ccc(OC(F)(F)F)cc1)C2 [pretomanid]	0.751
NNC(=O)c1ccncc1 [isoniazid] + O=[N+]([O-])c1cn2c(n1)OC[C@@H](OCc1ccc(OC(F)(F)F)cc1)C2	0.755
COc1nc2ccc(Br)cc2cc1[C@@H](c1ccccc1)[C@@](O)(CCN(C)C)c1cccc2ccccc12 [bedaquiline] + CC[C@@H](CO)NCCN[C@@H](CC)CO [ethambutol]	0.736
O=[N+]([O-])c1cn2c(n1)OC[C@@H](OCc1ccc(OC(F)(F)F)cc1)C2 [pretomanid] + CO[C@H]1/C=C/O[C@@]2(C)Oc3c(C)c(O)c4c(O)c(c(/C=N/N5CCN(C6CCCC6)CC5)c(O)c4c3C2=O)NC(=O)/C(C)=C\C=C\[C@H](C)[C@H](O)[C@@H](C)[C@@H](O)[C@@H](C)[C@H](OC(C)=O)[C@@H]1C [rifapentine]	0.732

---

- Tested on: Mycobacterium tuberculosis Erdman (autoluminescent)
- Assay name: total FIC50 (Loewe) at 50% inhibition, three-drug combination (log2); higher = more antagonistic
- Condition notes: in vitro model: cholesterol-high 0.2 mM; time point: constant (~7 days, model-specific)
Entries and their total FIC50 values follow.
Outcome measure: total FIC50

Compound	Assayed target	Reported result
CC(=O)NC[C@H]1CN(c2ccc(N3CCOCC3)c(F)c2)C(=O)O1 [linezolid] + O=[N+]([O-])c1cn2c(n1)OC[C@@H](OCc1ccc(OC(F)(F)F)cc1)C2 [pretomanid] + CO[C@H]1/C=C/O[C@@]2(C)Oc3c(C)c(O)c4c(O)c(c(/C=N/N5CCN(C6CCCC6)CC5)c(O)c4c3C2=O)NC(=O)/C(C)=C\C=C\[C@H](C)[C@H](O)[C@@H](C)[C@@H](O)[C@@H](C)[C@H](OC(C)=O)[C@@H]1C [rifapentine]	Mycobacterium tuberculosis Erdman (autoluminescent)	0.139
CC(C)/N=c1\cc2n(-c3ccc(Cl)cc3)c3ccccc3nc-2cc1Nc1ccc(Cl)cc1 [clofazimine] + O=[N+]([O-])c1cn2c(n1)OC[C@@H](OCc1ccc(OC(F)(F)F)cc1)C2 [pretomanid] + NC(=O)c1cnccn1 [pyrazinamide]	Mycobacterium tuberculosis Erdman (autoluminescent)	0.247
COc1nc2ccc(Br)cc2cc1[C@@H](c1ccccc1)[C@@](O)(CCN(C)C)c1cccc2ccccc12 [bedaquiline] + CC(=O)NC[C@H]1CN(c2ccc(N3CCOCC3)c(F)c2)C(=O)O1 [linezolid] + COc1c(N2C[C@@H]3CCCN[C@@H]3C2)c(F)cc2c(=O)c(C(=O)O)cn(C3CC3)c12 [moxifloxacin]	Mycobacterium tuberculosis Erdman (autoluminescent)	0.524

---

- Tested on: Mycobacterium tuberculosis Erdman (autoluminescent)
- Assay name: Einf, fitted maximum growth inhibition of combination (fraction); higher = stronger maximal inhibition
- Condition notes: in vitro model: cholesterol 0.05 mM; time point: terminal (~4-5 doublings, model-specific)
Outcome measure: Einf

Compound	Assayed target	Outcome measure	Reported result
COc1nc2ccc(Br)cc2cc1[C@@H](c1ccccc1)[C@@](O)(CCN(C)C)c1cccc2ccccc12 [bedaquiline] + COc1c(N2C[C@@H]3CCCN[C@@H]3C2)c(F)cc2c(=O)c(C(=O)O)cn(C3CC3)c12 [moxifloxacin]	Mycobacterium tuberculosis Erdman (autoluminescent)	Einf	0.951
COc1nc2ccc(Br)cc2cc1[C@@H](c1ccccc1)[C@@](O)(CCN(C)C)c1cccc2ccccc12 [bedaquiline] + CO[C@H]1/C=C/O[C@@]2(C)Oc3c(C)c(O)c4c(O)c(c(/C=N/N5CCN(C6CCCC6)CC5)c(O)c4c3C2=O)NC(=O)/C(C)=C\C=C\[C@H](C)[C@H](O)[C@@H](C)[C@@H](O)[C@@H](C)[C@H](OC(C)=O)[C@@H]1C [rifapentine]	Mycobacterium tuberculosis Erdman (autoluminescent)	Einf	0.93
CC(C)/N=c1\cc2n(-c3ccc(Cl)cc3)c3ccccc3nc-2cc1Nc1ccc(Cl)cc1 [clofazimine] + O=[N+]([O-])c1cn2c(n1)OC[C@@H](OCc1ccc(OC(F)(F)F)cc1)C2 [pretomanid]	Mycobacterium tuberculosis Erdman (autoluminescent)	Einf	0.919
CC(C)/N=c1\cc2n(-c3ccc(Cl)cc3)c3ccccc3nc-2cc1Nc1ccc(Cl)cc1 [clofazimine] + CO[C@H]1/C=C/O[C@@]2(C)Oc3c(C)c(O)c4c(O)c(c(/C=N/N5CCN(C6CCCC6)CC5)c(O)c4c3C2=O)NC(=O)/C(C)=C\C=C\[C@H](C)[C@H](O)[C@@H](C)[C@@H](O)[C@@H](C)[C@H](OC(C)=O)[C@@H]1C [rifapentine]	Mycobacterium tuberculosis Erdman (autoluminescent)	Einf	0.887
O=[N+]([O-])c1cn2c(n1)OC[C@@H](OCc1ccc(OC(F)(F)F)cc1)C2 [pretomanid] + CO[C@H]1/C=C/O[C@@]2(C)Oc3c(C)c(O)c4c(O)c(c(/C=N/N5CCN(C)CC5)c(O)c4c3C2=O)NC(=O)/C(C)=C\C=C\[C@H](C)[C@H](O)[C@@H](C)[C@@H](O)[C@@H](C)[C@H](OC(C)=O)[C@@H]1C [rifampicin]	Mycobacterium tuberculosis Erdman (autoluminescent)	Einf	0.905
NNC(=O)c1ccncc1 [isoniazid] + COc1c(N2C[C@@H]3CCCN[C@@H]3C2)c(F)cc2c(=O)c(C(=O)O)cn(C3CC3)c12 [moxifloxacin]	Mycobacterium tuberculosis Erdman (autoluminescent)	Einf	0.962
CC(=O)NC[C@H]1CN(c2ccc(N3CCOCC3)c(F)c2)C(=O)O1 [linezolid] + CO[C@H]1/C=C/O[C@@]2(C)Oc3c(C)c(O)c4c(O)c(c(/C=N/N5CCN(C)CC5)c(O)c4c3C2=O)NC(=O)/C(C)=C\C=C\[C@H](C)[C@H](O)[C@@H](C)[C@@H](O)[C@@H](C)[C@H](OC(C)=O)[C@@H]1C [rifampicin]	Mycobacterium tuberculosis Erdman (autoluminescent)	Einf	0.935
